Source: ChEMBL document CHEMBL3988442

Would you mind telling me the reported Percent Effect of each entry?
test-system: Tyrosyl-tRNA synthetase, putative (Trypanosoma cruzi (strain CL Brener)) (UniProt Q4DSP6)
Sequence (Q4DSP6 as listed by the source): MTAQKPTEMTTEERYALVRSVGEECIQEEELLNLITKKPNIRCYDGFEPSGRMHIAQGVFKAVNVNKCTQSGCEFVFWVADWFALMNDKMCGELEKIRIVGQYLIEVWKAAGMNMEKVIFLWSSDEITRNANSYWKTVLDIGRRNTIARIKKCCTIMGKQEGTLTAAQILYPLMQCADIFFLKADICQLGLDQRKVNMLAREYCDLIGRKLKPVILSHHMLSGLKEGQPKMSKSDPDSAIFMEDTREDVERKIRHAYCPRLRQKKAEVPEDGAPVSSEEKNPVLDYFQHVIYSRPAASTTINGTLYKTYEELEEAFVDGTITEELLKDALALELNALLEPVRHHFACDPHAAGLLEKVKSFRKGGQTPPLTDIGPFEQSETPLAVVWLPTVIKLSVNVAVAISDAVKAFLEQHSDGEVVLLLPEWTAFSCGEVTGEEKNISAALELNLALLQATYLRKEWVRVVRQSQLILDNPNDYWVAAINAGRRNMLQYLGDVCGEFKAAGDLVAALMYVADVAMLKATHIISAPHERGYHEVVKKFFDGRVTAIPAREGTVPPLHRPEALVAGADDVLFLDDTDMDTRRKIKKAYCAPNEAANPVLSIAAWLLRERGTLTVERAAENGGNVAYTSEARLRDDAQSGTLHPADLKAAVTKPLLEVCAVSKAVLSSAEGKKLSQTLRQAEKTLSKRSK
test-description: Trypanosoma cruzi tyrosyl tRNA synthetase (TcYRS) SOP
Assay type: functional
Parameters: scale not given: direction of the effect not stated beside the values
particulars: 30 µM
Numbers only, in %.

>  <compound>
O=C(c1cccc(NCCO)c1)N1CCOCC1

>  <test-system>
Tyrosyl-tRNA synthetase, putative (Trypanosoma cruzi (strain CL Brener)) (UniProt Q4DSP6)

>  <Percent Effect / %>
11.1

$$$$
>  <compound>
O=C(NCCC1CCCO1)c1ccccc1N1CCOCC1 (stereo not drawn)

>  <test-system>
Tyrosyl-tRNA synthetase, putative (Trypanosoma cruzi (strain CL Brener)) (UniProt Q4DSP6)

>  <Percent Effect / %>
18.5

$$$$
>  <compound>
CCn1cc(NC(=O)NCC(c2cccc(F)c2)N(C)C)cn1 (stereo not drawn)

>  <test-system>
Tyrosyl-tRNA synthetase, putative (Trypanosoma cruzi (strain CL Brener)) (UniProt Q4DSP6)

>  <Percent Effect / %>
21.9

$$$$
>  <compound>
CNS(=O)(=O)c1ccc(C(=O)N2CCCC2Cc2ccccc2)o1 (stereo not drawn)

>  <test-system>
Tyrosyl-tRNA synthetase, putative (Trypanosoma cruzi (strain CL Brener)) (UniProt Q4DSP6)

>  <Percent Effect / %>
16.1

$$$$

Hey, can you go through the list below and give me Percent Effect for every item?
1. CCn1cc(NC(=O)NCc2ccc3c(c2)OCCO3)cn1
2. CCN(CC)C1CCN(C(=O)NCc2nncn2CC)CC1

Result string:
1: 21.2; 2: 7.69

Hey, can you go through the list below and give me Percent Effect for every item?
1. CC(=O)N1CCC2(CC1)C(=O)N(CC1CC1)c1ccccc12
2. CC(C)CN1CCC2(CCN(C(=O)c3ccc(F)cc3)CC2)C1=O

Result string:
[7.5, 22.5]

Hey, can you go through the list below and give me Percent Effect for every item?
1. Cc1cc(C)n(Cc2ccc(C(=O)NCCN3CCOCC3)cc2)n1
2. CN1CCN(c2ncnc3c2c(C(=O)NC2CC2)c2ccccn23)CC1
3. O=C1CCCCN1c1cccc(CNC2CCCC2)c1
4. CCCN(CC)C(=O)c1cc2c(c3ccccc3n2C)n1C(=O)N(C)C
5. CCc1ncnc2c1CCN(Cc1ccccn1)CC2

Result string:
[7.69, 0, 7.06, 10.3, -5.13]
